# Tgt: T1, human IL-1α (human, UniProt P01583 113-271)
# T1 construct: also called IL-1alpha; hIL-1α
# T1 sequence (looked up): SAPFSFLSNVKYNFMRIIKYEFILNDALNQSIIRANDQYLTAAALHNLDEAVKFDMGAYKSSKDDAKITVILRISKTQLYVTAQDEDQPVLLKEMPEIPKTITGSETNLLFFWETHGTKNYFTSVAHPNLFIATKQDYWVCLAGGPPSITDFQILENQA
# Method notes: Table 62 IC50; RBA presumed
Rule: IC50 below 0.6 nM gives 1. Equal to or above 0.6 nM gives -1.

>>> label_class("ABT1-95-155 (other, VK dAb) VL: DIQMTQSPSSLSASVGDRVTITCRASQPIVRNLRWYQQKPGKAPKLLITSSSYLEPGVPSRFSGSGSGTDFTLTISSLQPEDSATYHCQQGYRWPVTFGQGTKVEIKR")
-1
>>> label_class("ABT1-166 (other, VK dAb) VL: DIQMTQSPSSLSASVGDRVTITCRASQSISSYLNWYQQKPGKAPKLLIGGLSGLQSGVPSRFSGSGSGTDFTLTISSLQPEDFATYYCGQWARAPMTFGQGTKVEIKR")
-1
>>> label_class("ABT1-6-23 (other, VH dAb) VH: EVQLLESGGGLVQPGGSLRLSCAASGFTFVRYDMAWVRQAPGKGLEWVSSIYKSGALTSYADSVKGRFTISRDNSKNTLYLQMNSLRAEDTAVYYCAKGWASFDYWGQGTLVTVSS")
-1

Is the reported IC50 for ABT1-95-108 (other, VK dAb) VL: DIQMTQSPSSLSASVGDRVTITCRASQPIVRNLRWYQQKPGKAPKLLIYSSSYLEEGVPSRFSGSGSGTDFTLTISSLQPEDFATYHCQQGYRWPVTFGQGTKVEIKR strictly below 0.6 nM? 1

// same read-out, input: ABT1-95-141 (other, VK dAb) VL: DIQMTQSPSSLSASVGDRVTITCRASQPILRNLRWYQQKPGKAPKLLIYSSSYLEPGVPSRFSGSGSGTDFTLTISSLQPEDFATYHCQQGYRWPVTFGQGTKVEIKR -1

Try the binder ABT1-150 (other, VK dAb) VL: DIQMTQSPSSLSASVGDRVTITCRASQSISSYLNWYQQKPGKAPKLLIGGVSGLQSGVPSRFSGSGSGTDFTLTISSLQPEDFATYYCMQWWRWPSTFGQGTKVEIKRAAAEQKLISEED -1

Lookup ABT1-95-115 (other, VK dAb) VL: DIQMTQSPSSLSASVGDRVTITCRASQPIVRNLRWYQQKPGKAPKLLIYSSSYLEPGVPSRFSGSGSGTDFTLTISSLQPEDFATYHCLQGYRWPVTFGQGTKVEIKR 1
